Record form. Attribute: MIC. Fill in for each entry.
Tested on: mycobacteria of the avium complex, patient Ku
PROTOCOL DETAILS: MIC alone and in combination
Assay type: cell-based
ASSAY CONDITIONS: Homo sapiens, single

COMPOUND: CC[C@@H](CO)NCCN[C@@H](CC)CO [EMB, ethambutol]
STUDY SYSTEM: mycobacteria of the avium complex, patient Ku
MIC: > 32 µg/mL

Parameter requested: MIC. Apply to each item below.
1. CC(=O)Nc1ccc(C=NNC(N)=S)cc1 [Thz, thioacetazon]
2. CO[C@H]1/C=C/O[C@@]2(C)Oc3c(C)c(O)c4c(O)c(c(/C=N/N5CCN(C)CC5)c(O)c4c3C2=O)NC(=O)/C(C)=C\C=C\[C@H](C)[C@H](O)[C@@H](C)[C@@H](O)[C@@H](C)[C@H](OC(C)=O)[C@@H]1C [RMP, rifampicin]
3. NNC(=O)c1ccncc1 [INH, isonicotinic acid hydrazide]

Reply:
32 µg/mL
32 µg/mL
4 µg/mL

###

Tested on: mycobacteria of the avium complex, patient Vo
PROTOCOL DETAILS: MIC alone and in combination
Assay type: cell-based
ASSAY CONDITIONS: Homo sapiens, single
MEASUREMENT KIND: MIC (µg/mL)
Numbers only, in µg/mL.

Solved cases below.
COMPOUND: CO[C@H]1/C=C/O[C@@]2(C)Oc3c(C)c(O)c4c(O)c(c(/C=N/N5CCN(C)CC5)c(O)c4c3C2=O)NC(=O)/C(C)=C\C=C\[C@H](C)[C@H](O)[C@@H](C)[C@@H](O)[C@@H](C)[C@H](OC(C)=O)[C@@H]1C
MIC, µg/mL: 16
//
COMPOUND: CC(=O)Nc1ccc(C=NNC(N)=S)cc1
MIC, µg/mL: 32

Lab note: next compound to report on.
MIC measured on NNC(=O)c1ccncc1 [INH, isonicotinic acid hydrazide] = 8

###

Test system: mycobacteria of the avium complex, patient Bi
PROTOCOL DETAILS: MIC alone and in combination
Assay type: cell-based
ASSAY CONDITIONS: Homo sapiens, single
Could you please report measured MIC for the items listed next?
Answers are plain numbers, in mg/L.

CHEMICAL STRUCTURE: CC[C@@H](CO)NCCN[C@@H](CC)CO
STUDY SYSTEM: mycobacteria of the avium complex, patient Bi
MEASURED RESULT: 4

Summary for this molecule, "CO[C@H]1/C=C/O[C@@]2(C)Oc3c(C)c(O)c4c(O)c(c(/C=N/N5CCN(C)CC5)c(O)c4c3C2=O)NC(=O)/C(C)=C\C=C\[C@H](C)[C@H](O)[C@@H](C)[C@@H](O)[C@@H](C)[C@H](OC(C)=O)[C@@H]1C" : MIC is 4
